Species: Rattus norvegicus
Test: Open TG-GATES - Regimen: Single
Assay type: toxicity, organism-based, Sprague-Dawley
Set-up: regimen Single, gender Male, age 6 weeks
Details: in vivo, po, 0 mg/kg, 24 h, tissue Liver, route gavage, dose level Control
Quantity Name: LIVER
Write the figure, then the unit, nothing else.

I would be grateful if you could share the reported LIVER for O=NN(CCCl)C(=O)NC1CCCCC1 [LOMUSTINE] .
11.5 g

I would be grateful if you could share the reported LIVER for CC1=C(CC(=O)O)c2cc(F)ccc2/C1=C\c1ccc([S+](C)[O-])cc1 (stereo not drawn) .
9.8 g

I would be grateful if you could share the reported LIVER for O=NN1CCOCC1 [N-NITROSOMORPHOLINE] .
10.8 g

###

Species: Rattus norvegicus
Experiment: Open TG-GATES - Regimen: Single
Assay type: toxicity, organism-based, Sprague-Dawley
Parameters: regimen Single, gender Male, age 6 weeks
Conditions: in vivo, po, 0 mg/kg, 6 h, tissue Plasma, route gavage, dose level Control
Threshold rule: AST greater than or equal to 70 IU/L is y; below that, n.

Tell me whether AST is at least 70 IU/L here: `CC[C@H]1[C@@H]2C[C@H]3[C@@H]4N(C)c5ccccc5[C@]45C[C@@H]([C@@H]2[C@H]5O)N3[C@@H]1O`
n

Tell me whether AST is at least 70 IU/L here: CN(C)CCC=C1c2ccccc2COc2ccccc21 [DOXEPIN]
y

Tell me whether AST is at least 70 IU/L here: `CN(C)C(=N)N=C(N)N`
y

Tell me whether AST is at least 70 IU/L here: CC(C)N(CCC(C(N)=O)(c1ccccc1)c1ccccn1)C(C)C (configuration not stated) [DISOPYRAMIDE]
y

###

Assignment: determine reported Ht for the given compounds.
Organism: Rattus norvegicus
Test: Open TG-GATES - Regimen: Daily Repeat
Type: toxicity, organism-based, Sprague-Dawley
Parameters: regimen Daily Repeat, gender Male, age 6 weeks
Settings: in vivo, po, 0 mg/kg, […], tissue Blood, route gavage, dose level Control, time 7 day
# output: bare number, implied unit %

I would be grateful if you could share the reported Ht for `CCCCc1oc2ccccc2c1C(=O)c1cc(I)c(OCCN(CC)CC)c(I)c1` .
39.8

I would be grateful if you could share the reported Ht for `CN(C)C(=N)N=C(N)N` .
40.1

I would be grateful if you could share the reported Ht for OCCOCCN1CCN(C(c2ccccc2)c2ccc(Cl)cc2)CC1 (configuration not stated) [HYDROXYZINE] .
40.9

I would be grateful if you could share the reported Ht for `CC[C@H]1[C@@H]2C[C@H]3[C@@H]4N(C)c5ccccc5[C@]45C[C@@H]([C@@H]2[C@H]5O)N3[C@@H]1O` .
39.8

I would be grateful if you could share the reported Ht for ClC(Cl)(Cl)Cl [CARBON TETRACHLORIDE] .
40.1

I would be grateful if you could share the reported Ht for CC(C)N(CCC(C(N)=O)(c1ccccc1)c1ccccn1)C(C)C (configuration not stated) [DISOPYRAMIDE] .
39.9

I would be grateful if you could share the reported Ht for `O=NN(CCCl)C(=O)NC1CCCCC1` .
40.2

###

Assignment: determine reported DBIL for the given molecules.
Species: Rattus norvegicus
Assay: Open TG-GATES - Regimen: Daily Repeat
Type: toxicity, organism-based, Sprague-Dawley
Set-up: regimen Daily Repeat, gender Male, age 6 weeks
Conditions: in vivo, po, 0 mg/kg, […], tissue Plasma, route gavage, dose level Control, time 7 day
# output: bare number, implied unit mg/dL

I would be grateful if you could share the reported DBIL for `CCC1(c2ccccc2)C(=O)NC(=O)NC1=O` .
0.054

I would be grateful if you could share the reported DBIL for `CC[C@H]1[C@@H]2C[C@H]3[C@@H]4N(C)c5ccccc5[C@]45C[C@@H]([C@@H]2[C@H]5O)N3[C@@H]1O` .
0.004

I would be grateful if you could share the reported DBIL for `CCCCc1oc2ccccc2c1C(=O)c1cc(I)c(OCCN(CC)CC)c(I)c1` .
0.1

I would be grateful if you could share the reported DBIL for `CN(C)C(=N)N=C(N)N` .
0.014

I would be grateful if you could share the reported DBIL for CC(C)N(CCC(C(N)=O)(c1ccccc1)c1ccccn1)C(C)C (stereo unspecified) [DISOPYRAMIDE] .
0

I would be grateful if you could share the reported DBIL for ClC(Cl)(Cl)Cl [CARBON TETRACHLORIDE] .
0.1

###

Organism: Rattus norvegicus
Assay: Open TG-GATES - Regimen: Single
Assay type: toxicity, organism-based, Sprague-Dawley
Design: regimen Single, gender Male, age 6 weeks
Settings: in vivo, po, 0 mg/kg, 24 h, tissue Blood, route gavage, dose level Control
Assignment: determine reported Hb for the given compounds.
# output: bare number, implied unit g/dL

I would be grateful if you could share the reported Hb for CC1=C(CC(=O)O)c2cc(F)ccc2/C1=C\c1ccc([S+](C)[O-])cc1 (stereo not drawn) .
13.7

I would be grateful if you could share the reported Hb for OCCOCCN1CCN(C(c2ccccc2)c2ccc(Cl)cc2)CC1 (stereo not drawn) [HYDROXYZINE] .
13.1

I would be grateful if you could share the reported Hb for `CCC1(c2ccccc2)C(=O)NC(=O)NC1=O` .
13.4

###

Assignment: determine reported RBC for the given compounds.
Species: Rattus norvegicus
Assay: Open TG-GATES - Regimen: Daily Repeat
Format: toxicity, organism-based, Sprague-Dawley
Design: regimen Daily Repeat, gender Male, age 6 weeks
Conditions: in vivo, po, 0 mg/kg, […], tissue Blood, route gavage, dose level Control, time 7 day
# output: bare number, implied unit x10_4/ul

I would be grateful if you could share the reported RBC for CC1=C(CC(=O)O)c2cc(F)ccc2/C1=C\c1ccc([S+](C)[O-])cc1 (stereo not drawn) .
678.6

I would be grateful if you could share the reported RBC for CN(C)CCC=C1c2ccccc2COc2ccccc21 [DOXEPIN] .
641.8

I would be grateful if you could share the reported RBC for `CCC1(c2ccccc2)C(=O)NC(=O)NC1=O` .
652

###

Organism: Rattus norvegicus
Assay: Open TG-GATES - Regimen: Single
Type: toxicity, organism-based, Sprague-Dawley
Set-up: regimen Single, gender Male, age 6 weeks
Conditions: in vivo, po, 0 mg/kg, 3 h, tissue Blood, route gavage, dose level Control
Quantity Name: MCV (fL)
# output: bare number, implied unit fL

I would be grateful if you could share the reported MCV for CC1=C(CC(=O)O)c2cc(F)ccc2/C1=C\c1ccc([S+](C)[O-])cc1 (configuration not stated) .
65.1

I would be grateful if you could share the reported MCV for `CCC1(c2ccccc2)C(=O)NC(=O)NC1=O` .
60.2

I would be grateful if you could share the reported MCV for ClC(Cl)(Cl)Cl [CARBON TETRACHLORIDE] .
62.3

I would be grateful if you could share the reported MCV for CC(C)N(CCC(C(N)=O)(c1ccccc1)c1ccccn1)C(C)C (configuration not stated) [DISOPYRAMIDE] .
64.4

I would be grateful if you could share the reported MCV for CN(C)CCC=C1c2ccccc2COc2ccccc21 [DOXEPIN] .
64.4

I would be grateful if you could share the reported MCV for `O=NN(CCCl)C(=O)NC1CCCCC1` .
66

I would be grateful if you could share the reported MCV for `CN(C)C(=N)N=C(N)N` .
65.3

###

Assignment: determine reported MCV for the given molecules.
Species on record: Rattus norvegicus
Assay: Open TG-GATES - Regimen: Single
Type: toxicity, organism-based, Sprague-Dawley
Design: regimen Single, gender Male, age 6 weeks
Conditions: in vivo, po, 0 mg/kg, 9 h, tissue Blood, route gavage, dose level Control
# output: bare number, implied unit fL

I would be grateful if you could share the reported MCV for CC1=C(CC(=O)O)c2cc(F)ccc2/C1=C\c1ccc([S+](C)[O-])cc1 (centres undefined) .
64.8

I would be grateful if you could share the reported MCV for `CC[C@H]1[C@@H]2C[C@H]3[C@@H]4N(C)c5ccccc5[C@]45C[C@@H]([C@@H]2[C@H]5O)N3[C@@H]1O` .
67.5

I would be grateful if you could share the reported MCV for `CN(C)C(=N)N=C(N)N` .
64.5

I would be grateful if you could share the reported MCV for `CCc1oc2ccccc2c1C(=O)c1cc(Br)c(O)c(Br)c1` .
64.4

###

Assignment: determine reported PT for the given molecules.
Species on record: Rattus norvegicus
Experiment: Open TG-GATES - Regimen: Single
Format: toxicity, organism-based, Sprague-Dawley
Design: regimen Single, gender Male, age 6 weeks
Conditions: in vivo, po, 0 mg/kg, 24 h, tissue Blood, route gavage, dose level Control
# output: bare number, implied unit s

I would be grateful if you could share the reported PT for CC1=C(CC(=O)O)c2cc(F)ccc2/C1=C\c1ccc([S+](C)[O-])cc1 (centres undefined) .
13.7

I would be grateful if you could share the reported PT for CC(C)N(CCC(C(N)=O)(c1ccccc1)c1ccccn1)C(C)C (centres undefined) [DISOPYRAMIDE] .
16

I would be grateful if you could share the reported PT for ClC(Cl)(Cl)Cl [CARBON TETRACHLORIDE] .
11.8

I would be grateful if you could share the reported PT for `CC[C@H]1[C@@H]2C[C@H]3[C@@H]4N(C)c5ccccc5[C@]45C[C@@H]([C@@H]2[C@H]5O)N3[C@@H]1O` .
11.5
